B1: LINE1-full (parent)
chain: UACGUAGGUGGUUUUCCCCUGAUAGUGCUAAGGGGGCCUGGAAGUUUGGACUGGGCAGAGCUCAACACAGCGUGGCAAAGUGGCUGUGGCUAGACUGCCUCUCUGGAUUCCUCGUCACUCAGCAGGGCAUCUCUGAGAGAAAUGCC

# Variants of: B1
# test description: self-cleavage, relative activity (ratio to wild type); higher = more cleavage; in vitro, sequencing; the parent is a self-cleaving ribozyme
What self-cleavage was measured for each of the following?
One number for each entry.

>>> df
   variant_id  result_value
0    U1C A22G          0.84
1   A22C U85C          0.35

Could you tell me self-cleavage for each of these variants? They are listed below.
1. U102C C113U
2. G114U A136U
3. U12C C146A
4. G10U A138U

Solution:
1. 1.48
2. 1.23
3. 1.45
4. 1
